Reference for the values: ChEMBL document CHEMBL1136021

Reported values: IC50 for Serine protease 1 (Homo sapiens), one per item.
# unit: nM | format: bare number

1) C/C(=C(\F)C(=O)Nc1ccc(-c2ccccc2S(N)(=O)=O)cc1F)c1cccc(C(=N)N)c1 = 194

Next compound, please.
Req: API: value(readout= IC50, system= Serine protease 1 (Homo sapiens), query= CC(=C(F)C(=O)Nc1ccc(-c2ccccc2S(N)(=O)=O)cc1)c1cccc(C(=N)N)c1 )
Resp: 259

====

This section presents molecules with their documented IC50 values.
target: Coagulation factor X (Homo sapiens, UniProt P00742); experiment: Inhibitory activity against factor Xa
Sequence (P00742 41-179 limits assumed): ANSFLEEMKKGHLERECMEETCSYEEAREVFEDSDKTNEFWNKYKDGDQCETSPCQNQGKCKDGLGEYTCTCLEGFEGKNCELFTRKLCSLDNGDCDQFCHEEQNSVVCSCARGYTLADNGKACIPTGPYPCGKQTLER
Sequence (P00742 235-488 limits assumed): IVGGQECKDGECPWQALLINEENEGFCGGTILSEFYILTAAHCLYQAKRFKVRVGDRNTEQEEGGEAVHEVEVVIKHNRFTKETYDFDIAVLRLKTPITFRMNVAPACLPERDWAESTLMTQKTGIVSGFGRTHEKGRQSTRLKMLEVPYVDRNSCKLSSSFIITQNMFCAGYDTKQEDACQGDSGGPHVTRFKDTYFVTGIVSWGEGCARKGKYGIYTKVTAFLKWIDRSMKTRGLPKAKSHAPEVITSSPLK
Give the number first and the unit second.

Req: Returns the measured IC50 for the input molecule. Input: N=C(N)c1cccc(C=C(C(=O)Nc2ccc(-c3ccccc3S(N)(=O)=O)cc2)c2ccccn2)c1
Resp: 0.664 µM

Req: Returns the measured IC50 for the input molecule. Input: CC(=C(F)C(=O)Nc1ccc(-c2ccccc2S(N)(=O)=O)cc1F)c1ccc(F)c(C(=N)N)c1
Resp: 0.0015 µM

Req: Returns the measured IC50 for the input molecule. Input: N=C(N)c1cccc(C=CC(=O)Nc2ccc(-c3ccccc3S(N)(=O)=O)cc2)c1
Resp: 0.017 µM

Req: Returns the measured IC50 for the input molecule. Input: CC(=C(F)C(=O)Nc1ccc(-c2ccccc2S(N)(=O)=O)cc1)c1cccc(C(=N)N)c1
Resp: 0.001 µM

Req: Returns the measured IC50 for the input molecule. Input: N=C(N)c1cccc(C(=CC(=O)Nc2ccc(-c3ccccc3S(N)(=O)=O)cc2)Cc2cc[nH]n2)c1
Resp: 0.048 µM
